# System: Plasmodium falciparum
# PROCEDURE_DETAILS: Antimalarial activity against Plasmodium falciparum D10 by parasite lactate dehydrogenase assay
# Assay type: functional, organism-based
Note to self: use label 1 only for IC50 readings below 80 nM; a reading exactly at 80 nM still gets label 0.

{"columns": ["MOLECULE", "ASSIGNED_LABEL"],
 "data": [
  ["Clc1ccc(C(Nc2ccnc3cc(Cl)ccc23)c2ccc(CN3CCCCC3)cc2)cc1 (stereo unspecified)", "label 1"],
  ["COc1cc(NC(c2ccc(CN3CCNCC3)cc2)c2cccc(Cl)c2)n2nc(C)nc2n1 (stereo unspecified)", "label 0"],
  ["O=C(c1ccc(Cl)cc1)c1ccc(CN2CCNCC2)cc1", "label 0"],
  ["Clc1cccc(C(Nc2ccnc3cc(Cl)ccc23)c2ccc(CN3CCCCC3)cc2)c1 (stereo unspecified)", "label 0"],
  ["Clc1cccc(C(Nc2ccnc3cc(Cl)ccc23)c2ccc(CCN3CCCC3)cc2)c1 (stereo unspecified)", "label 1"],
  ["OC(c1ccc(Cl)cc1)(c1ccc(CN2CCNCC2)cc1)c1ccnc2cc(Cl)ccc12 (stereo unspecified)", "label 0"],
  ["COc1cccc(C(Nc2ccnc3cc(Cl)ccc23)c2ccc(CN3CCNCC3)cc2)c1 (stereo unspecified)", "label 1"],
  ["COc1cc(NC(c2ccc(CN3CCNCC3)cc2)c2cccc(Cl)c2)c2ncccc2c1 (stereo unspecified)", "label 0"],
  ["OC(c1ccc(Cl)cc1)c1ccc(CN2CCNCC2)cc1 (stereo unspecified)", "label 0"],
  ["OC(c1ccc(Cl)cc1)c1ccc(CCN2CCCC2)cc1 (stereo unspecified)", "label 0"],
  ["Clc1ccc(C(Nc2ccnc3cc(Cl)ccc23)c2ccc(CN3CCN(Cc4ccc(C(Nc5ccnc6cc(Cl)ccc56)c5cccc(Cl)c5)cc4)CC3)cc2)cc1 (stereo unspecified)", "label 0"],
  ["COc1cc(NC(c2ccc(CN3CCCC3)cc2)c2cccc(Cl)c2)c2ncccc2c1 (stereo unspecified)", "label 0"],
  ["COc1cc(NC(C)CCCN)c2ncccc2c1 (stereo unspecified)", "label 0"],
  ["Oc1cccc(C(Nc2ccnc3cc(Cl)ccc23)c2ccc(CN3CCNCC3)cc2)c1 (stereo unspecified)", "label 0"],
  ["Clc1ccc(C(Nc2ccnc3cc(Cl)ccc23)c2ccc(CCN3CCCC3)cc2)cc1 (stereo unspecified)", "label 1"],
  ["Clc1ccc(C(c2ccc(CN3CCNCC3)cc2)c2ccnc3cc(Cl)ccc23)cc1 (stereo unspecified)", "label 0"]
]}
